FYI, the data here is from ChEMBL document CHEMBL4184170.

- TARGET OF ASSAY: Caspase-1 (Homo sapiens, UniProt P29466)
- MEASUREMENT DESCRIPTION: Inhibition of caspase1 in human THP1 cells assessed as LPS/ATP-induced IL-1beta release preincubated for 24 hrs in presence of LPS measured after overnight incubation by HTRF assay
- Format: cell-based
pIC50: −log10 of the molar value.
RESULT TYPE: pIC50

[[record]]
compound = "CC(C)[C@H](NC(=O)c1ccc2ccccc2c1)C(=O)N1[C@H]2CC[C@](O)(CC2)[C@H]1C(=O)N[C@H]1CC(=O)OC1O (stereo partly specified)"
result_type = "pIC50"
observed = 7.07


###

- MEASUREMENT DESCRIPTION: Fraction unbound in human plasma at 5 uM after 4 hrs by LC-MS/MS-based equilibrium dialysis method
- Type: ADME, cell-free
RESULT TYPE: fraction unbound at 4 h, 5 µM

[[record]]
compound = "CC(C)[C@H](NC(=O)c1ccc2ccccc2c1)C(=O)N1[C@H]2CC[C@](O)(CC2)[C@H]1C(=O)N[C@H]1CC(=O)OC1O (stereo partly specified)"
result_type = "fraction unbound at 4 h, 5 µM"
observed = 0.12


###

- TARGET OF ASSAY: Caspase-1 (Homo sapiens, UniProt P29466)
- Sequence (P29466 whole entry): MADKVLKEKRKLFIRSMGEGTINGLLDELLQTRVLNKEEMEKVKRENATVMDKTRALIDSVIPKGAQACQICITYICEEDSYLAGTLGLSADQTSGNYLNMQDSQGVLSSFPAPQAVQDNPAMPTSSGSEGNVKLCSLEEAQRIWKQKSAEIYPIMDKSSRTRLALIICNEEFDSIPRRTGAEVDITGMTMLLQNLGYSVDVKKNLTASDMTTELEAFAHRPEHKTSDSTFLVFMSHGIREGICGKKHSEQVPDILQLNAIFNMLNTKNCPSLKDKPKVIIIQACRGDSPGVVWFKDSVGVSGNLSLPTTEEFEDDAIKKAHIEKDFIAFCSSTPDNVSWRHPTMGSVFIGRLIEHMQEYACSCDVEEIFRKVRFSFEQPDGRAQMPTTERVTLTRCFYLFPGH
- MEASUREMENT DESCRIPTION: Inhibition of human recombinant caspase1 expressed in Escherichia coli using AC-WEHD-AMC as substrate after 20 mins by fluorescence assay
pIC50: −log10 of the molar value.
Item-by-item account of pIC50
RESULT TYPE: pIC50

[[record]]
molecule = "CC(C)[C@H](NC(=O)c1ccc2ccccc2c1)C(=O)N1[C@H]2CC[C@](O)(CC2)[C@H]1C(=O)N[C@H]1CC(=O)OC1O (stereo partly drawn)"
observed = 7.77

[[record]]
molecule = "CC(C)(C)[C@H](NC(=O)c1ccc(N)c(Cl)c1)C(=O)N1CCC[C@H]1C(=O)N[C@H]1CC(=O)OC1O (stereo partly drawn)"
observed = 8.30

[[record]]
molecule = "O=C1C[C@H](NC(=O)[C@@H]2CC[C@@H]3CCCC[C@H](NC(=O)c4nccc5ccccc45)C(=O)N32)C(O)O1 (stereo partly drawn)"
observed = 7.96

